Data credit: patent US20170240628A1

Biological target: T1, recombinant murine midkine (muMK) (murine, UniProt P12025 23-140)
T1 construct: also called murine MK; Murine MK
T1 sequence (looked up): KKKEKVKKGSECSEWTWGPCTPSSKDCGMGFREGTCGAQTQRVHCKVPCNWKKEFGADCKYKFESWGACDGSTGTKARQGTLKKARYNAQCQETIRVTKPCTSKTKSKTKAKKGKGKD
Assay: ELISA, plate coated with muMK
READOUT TYPE: pEC50
Remember the convention: pEC50 equals -log10 of concentration in molar.

BINDER: IP14-H2L3 (antibody, V domains shown, also called hIP14-H2L3; Hv2 Lv3) VH: QVQLVQSGAEVKKPGASVKVSCKASGQSFSSYWMNWVRQAPGQGLEWIGMIHPSDSETILNQKFKDKATLTVDISTSTAYMELSSLRSEDTAVYYCSSWSAKRGDFWGQGTLVTVSS VL: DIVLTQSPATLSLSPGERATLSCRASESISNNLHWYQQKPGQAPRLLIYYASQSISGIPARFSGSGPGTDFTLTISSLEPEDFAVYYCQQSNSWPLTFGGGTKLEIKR
pEC50: 10.09

Now for a further binder.
Supply recorded pEC50 for IP14-H1L6 (antibody, V domains shown, also called Hv1 Lv6) VH: QVQLVQSGAEVKKPGHSVKVSCKASGQSFSSYWMNWVRQAPGQGLEWIGMIHPSDSETILNQKFKDKATLTVDISTSTAYMELSSPRSEDTAVYYCSSWSAKRGDFWGQGTLVTVSS VL: EIVLTQSPSTLSASVGDRVNITCRASESISNNLHWYQQKPHKAPKLLIYYASQSISGVPSRFSGSGSGTEFNLTISSVQPDDFATYYCQQSNSWPLTFGQGTKVEIKR here. 10.06
